Tested on: Tov112D
Assay: Primary qHTS to identify gynecologic anti-cancer compounds using libraries of approved drugs and bioactive compounds (AID 1345084); further: on the % scale 0 is the no-effect control and ±100 the full control effect; nearly all actives have a fitted effect of over 55% in size
Details: Gynecologic cancer cell panel viability, ATPlite luminescence, 48 h; series mostly up to 57.5 µM
Results filed as inconclusive are left out. Active and inactive are the calls of the source. The call rests on the fitted dose curve; in most records, active means well fitted cell-killing curve with a large enough effect; inconclusive means small, poorly fitted or top-dose-only effect, or effect the other way; inactive means flat fitted curve, though single readings scatter.
reportedEndpoint: activity change, negative = cytotoxicity

1) COc1c(C)c(OCC=C(C)C)cc2c1CNC2=O: inactive
2) C=Cc1ccc(O[C@@H]2O[C@H](CO[C@@H]3O[C@@H](C)[C@H](O)[C@@H](O)[C@H]3O)[C@@H](O)[C@H](O)[C@H]2O)cc1: inactive
3) COc1cc(C)c(C(=O)OC2C(C)OC(OC3CCC(C)C4C3C=C(C)C3/C(C)=C\CC/C(C)=C/C5(C)C=C(C(=O)O)C(C)CC56OC(=O)/C(=C(\O)C34C)C6=O)C(O)C2O)c(OC)c1 (centres undefined): 1.96% [at 11.6 µM] (inactive)
4) COc1cccc(OC)c1-c1cc(C(=O)N[C@@H](CC(C)C)C(=O)O)nn1-c1ccnc2cc(Cl)ccc12: inactive

Data credit: PubChem BioAssay (NCATS)
